All figures here come from PubChem BioAssay (NCI).

Test system: IGROV1 ovarian
MEASUREMENT NOTES: NCI-60 one-dose screen, 48 h (100 = growth as untreated, 0 = no growth, -100 = all killed)
MEASUREMENT CONDITIONS: 10 µM unless noted
Compounds without any hit were thinned out: in the full panel of roughly 83,000, 20% have a hit.
Please mark t if the recorded growth is equal to or greater than 50%, and f if it falls below.

MOLECULE	GROUP
Oc1c(Cl)cc(Cl)c2ccc(Cn3cc(-c4cc(C(F)(F)F)cc(C(F)(F)F)c4)nn3)nc12	t
O=C(CI)NC1Oc2ccccc2-c2oc(=O)c(-c3ccccc3)cc21 (centres undefined)	f
COc1ccc(-c2nc3c(c(-c4ccccc4)nn3-c3ccccc3)c(-c3ccc(N4CCN(C)CC4)cc3)c2C#N)cc1	t
N#C/C(=C/c1ccc([N+](=O)[O-])cc1)n1nnc2cc(F)c(F)cc21	t
COc1ccc2cc(-c3ccc(NC(C)=O)c(=O)o3)ccc2c1	t
Cc1ccc(C(C(N)=O)C(C(N)=O)c2ccccc2)cc1 (centres undefined)	t
O=C(Nc1ccc(-c2nc(N3CCOCC3)c3cccn3n2)cc1)Nc1cccnc1	f
CO/N=C(/C)c1ccc(NC(=O)CSc2nnc(-c3ccncc3)n2-c2ccccc2)cc1	f
C=C1C(=O)O[C@H]2[C@H]1CC/C(COC(=O)NCc1ccc(Cn3c(=O)sn(CCI)c3=O)cc1)=C\CC[C@@]1(C)O[C@@H]21	f
O=C1CC(N2C(=O)/C(=C/C(Cl)=C\c3ccc([N+](=O)[O-])cc3)SC2=S)C(=O)N1c1ccc(Cl)cc1 (centres undefined)	f
CS(=O)(=O)Nc1cc(-c2ccc3ncnc(Nc4c(Cl)ccc5c4OCO5)c3c2)cnc1Cl	f
O=C(c1ccc(-c2ccccc2)cc1)c1ccc([N+](=O)[O-])cc1	t
COC(=O)c1c2c(c[n+]([O-])c1C)C(=O)C(NCc1ccccc1)=CC2=O	f
CC(=O)N(N=Nc1ccccc1)c1cccc2ccccc12	t
CCNc1cc(-c2cccc(OC(F)(F)F)c2)nc2ccc(N3CCCC3)cc12	f
C=C(C)[C@@H]1CC[C@]2(C(=O)NCC#CCN3CCN(C)CC3)CC[C@]3(C)[C@H](CC[C@@H]4[C@@](C)(CCC#N)[C@H](C(=C)C)CC[C@]43C)[C@@H]12	f
O=C(Cn1c(-c2ccc([N+](=O)[O-])cc2)nc2ccccc21)NNC(=O)c1cccnc1	t
CCCC(=O)NC(c1ccc2c(c1)OCO2)c1ccc2cccnc2c1O (centres undefined)	f

---

System: EKVX NSCLC
MEASUREMENT NOTES: NCI-60 one-dose screen, 48 h
MEASUREMENT CONDITIONS: 10 µM unless noted
Compounds without any hit were thinned out: in the full panel of roughly 83,000, 20% have a hit. Activity calls are given as the source filed them. How the source made its calls: active means growth percent below 10; inactive means the rest.
Outcome codes: active, inactive

COMPOUND	GROUP
N#Cc1cccc(-c2c(-c3ccc4ccccc4c3)oc3ccccc3c2=O)c1	inactive
COC(=O)c1ccc2c(c1)C(=O)c1c-2n(CCCN)c(=O)c2cc([N+](=O)[O-])ccc12	active
O=C(Cn1cc(CN2CCCCCC2)nn1)Nc1ccc2c(ccn2Cc2ccccc2)c1	inactive
COc1cc(-c2nc3cc(Cl)c(Cl)cc3[nH]2)ccc1OCC(=O)N=Nc1c(O)[nH]c2ccc([N+](=O)[O-])cc12	inactive
C[C@@H]1CCC[C@H]1CC(N)C(=O)O (stereo not given in full)	inactive
